# assayed-system: human plasma protein factor Xa (Homo sapiens, UniProt P00742)
# Construct: measure proteolytic activity of the enzyme (factor Xa)
# Sequence (P00742 235-488 limits assumed): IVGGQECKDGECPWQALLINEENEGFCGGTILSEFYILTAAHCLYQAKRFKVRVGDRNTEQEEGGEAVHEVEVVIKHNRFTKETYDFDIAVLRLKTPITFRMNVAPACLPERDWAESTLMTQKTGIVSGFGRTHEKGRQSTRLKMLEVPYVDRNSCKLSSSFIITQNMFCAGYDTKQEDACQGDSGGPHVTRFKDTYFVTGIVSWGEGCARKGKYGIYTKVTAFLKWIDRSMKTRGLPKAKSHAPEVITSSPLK
# Sequence (P00742 41-179 partner limits assumed): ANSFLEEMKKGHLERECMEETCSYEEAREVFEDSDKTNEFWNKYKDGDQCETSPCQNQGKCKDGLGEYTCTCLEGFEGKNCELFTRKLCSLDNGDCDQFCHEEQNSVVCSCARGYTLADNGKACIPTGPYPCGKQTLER
# run-description: Factor Xa IC50 determination (cleavage of chromogenic substrate S-2765)
# condition-details: fXa 1 nM, S-2765 100 μM, Tris buffered saline pH 7.4, room temperature
# Text: This example illustrates methods for evaluating the compounds of the invention, along with results obtained for such assays. The in vitro and in vivo Factor Xa isoform activities of the inventive compounds can be determined by various procedures known in the art, such as a test for their ability to inhibit the activity of the Factor Xa isoform. […] The IC50 value is the concentration (in nM) of the compound required to provide 50% inhibition of Factor Xa isoform. […]
pIC50: −log10 of the molar value.
The entries below are paired with their reported pIC50.

# compound, pIC50
data = [
    ("C#CCN(C)C(=N)c1ccc(NC(=O)C(NC(=O)Nc2ccc(Cl)cc2)c2ccccc2)cc1 (centres unmarked)", "≥ 7.00"),
    ("O=C(Nc1ccc(Cl)cc1)NC(C(=O)N1CCC(N2CCCCC2=O)CC1)c1ccccc1F (centres unmarked)", "≥ 7.00"),
    ("C=CCN(C)C(=N)c1ccc(NC(=O)C(NC(=O)Nc2ccc(Cl)cc2)c2ccccc2)cc1 (centres unmarked)", "≥ 7.00"),
    ("C=CCC(NC(=O)Nc1ccc(Cl)cc1)C(=O)Nc1ccc(C2=NCCN2C)cc1 (centres unmarked)", "≥ 7.00"),
    ("O=C(Nc1ccc(Cl)cc1)N[C@H](C(=O)Nc1ccc(-n2ccccc2=O)cc1)c1ccccc1", "≥ 7.00"),
    ("O=C(Nc1ccc(Br)cc1)NC(C(=O)Nc1ccc(-c2cccc[n+]2[O-])cc1)c1ccccc1F (centres unmarked)", "≥ 7.00"),
    ("Cc1ccccc1C(NC(=O)Nc1ccc(Cl)cc1)C(=O)NCC1CCN(c2ccncc2)CC1 (centres unmarked)", "≥ 7.00"),
    ("Cc1ccccc1C(NC(=O)Nc1ccc(Cl)cc1)C(=O)Nc1ccc(N(C)c2ccncc2)cc1 (centres unmarked)", "≥ 7.00"),
]
